For each of the molecules below, state its GI50.
# Tested on: SNB-19
# protocol.summary: NCI tumour cell line growth inhibition, 48 h
Calls of active or inactive are those of the source. Cut-off read from the data, not from the text of the source: active = GI50 up to about 1.1 µM and inactive = higher.

Field: example entries. Status: answers known.
O=NN(CCF)C(=O)NC1CCSCC1    > 100 µM (inactive)
COc1ccc(/N=[N+](\[O-])c2ccc(OC)cc2)cc1    > 100 µM (inactive)
O=C1N=C(Nc2ccccc2Cl)N/C1=C\c1ccc(Cl)cc1Cl    > 100 µM (inactive)
COc1cccc2c(SCC(=O)Nc3ccccc3-c3ccccc3NC(=O)CSc3c4ccccc4nc4c(OC)cccc34)c3ccccc3nc12    > 100 µM (inactive)

Now for the molecule whose GI50 we want.
[in] Could you share what GI50 was measured for COC(=O)/C1=C/c2c([nH]c3ccccc23)/C(C(=O)OC)=C\c2c1[nH]c1ccccc21 , tested on SNB-19?
[out] 33.7 µM (inactive)

###

# Tested on: MDA-MB-231
# protocol.summary: NCI tumour cell line growth inhibition, 48 h
Activity calls are given as the source filed them. Rule as the data show it: active = GI50 up to about 1.1 µM and inactive = higher.
observed.property: GI50

CCCCN1C(=O)C2Cc3c([nH]c4ccccc34)C(c3cccc(O)c3)N2C1=O (stereo unspecified)    15.5 µM (inactive)
C/C(CC1C2CCCC1C2)=N\NC(N)=O (stereo unspecified)    > 100 µM (inactive)
COC(=O)c1ccc(S)c(S(=O)(=O)Nc2nc(N)n[nH]2)c1    > 100 µM (inactive)
Cn1c(=O)n2n(c1=O)Cc1cccc3cccc(c13)C2    > 100 µM (inactive)
CC(=N\N)/C(C)=N/N=C(C)/C(C)=N/N    > 100 µM (inactive)

Take each entry in turn and give its GI50.
1. CCN1C(=O)/C(=C2\SC(c3ccccc3)(c3ccccc3)c3ccccc32)SC1=S
2. O=Cc1ccc(-c2ccc(-c3ccc(CO)s3)o2)s1
3. O=c1[nH]cc(NCCCl)c(=O)[nH]1
4. Nc1nc(=S)[nH]c2nc3c(c(-c4ccccc4)c12)CCCC3
5. COC(=O)CNC(=O)C(Cc1ccccc1)NC(=O)c1ccc(-c2ccc(Cl)cc2Cl)o1 (stereo unspecified)

[out]
1: 72.3 µM (inactive); 2: 22 µM (inactive); 3: > 100 µM (inactive); 4: > 100 µM (inactive); 5: 19 µM (inactive)

[in] Find the recorded GI50 belonging to Cc1c2ccccc2cc2nc3ccccc3n12 and report it.
[out] > 10 µM (inactive)

###

# System: SK-MEL-5
# protocol.summary: NCI tumour cell line growth inhibition, 48 h
Calls of active or inactive are those of the source. No stated cut-off is given here; in the data, active = GI50 up to about 1.1 µM and inactive = higher.
In this exercise, the only acceptable responses are active, inactive

Examples with answers:
O=c1c2sc3ccccc3sc=2c(=O)c2c(Cl)c(Cl)c(Cl)c(Cl)c12    inactive
CC(=O)OC[C@]1(O)CC[C@@]23CC1C[C@@H]2CCC1C(C)(C)CCC[C@@]13C (some centres not stated)    inactive
CCOC(=O)N1CCc2cc(OC)c(OC)c3c2C1CC3=O (configuration not stated)    inactive
C=CCn1c(=S)sc2c(O)ncnc21    inactive
C=CCCCCCC(O)C(O)C/C=C\C/C=C\CC (configuration not stated)    inactive

[in] Name the outcome recorded for CN1CCCC(C(=O)OCC(=O)C2(O)CCC3C4CCC5=CC(=O)CCC5(C)C4C(O)CC32C)C1 (configuration not stated) in the assay.
[out] inactive

[in] Recorded test outcome, item COC(=O)C1=CC2CC1C(S(=O)(=O)c1ccccc1)C2S(=O)(=O)c1ccccc1 (configuration not stated)
[out] inactive

[in] Fill in: this test's call for O=C(CSCC(=O)N/N=C/c1cccs1)N/N=C/c1cccs1 is ___
[out] inactive

[in] For CC(C)(C)C1=NO[C@H]2[C@@H](NC(=O)c3ccccc3)CC[C@@H]12 , what call appears in the results of this test?
[out] inactive

[in] Lab log entry: CCOC(=O)C1(Cc2ccccc2)Cc2cc3c(cc2C1=O)CCC3 (configuration not stated) — outcome as called in the assay?
[out] inactive

###

For each of the molecules below, state its GI50.
# Test system: HOP-92
# protocol.summary: NCI tumour cell line growth inhibition, 48 h
The source made the active and inactive calls. Rule as the data show it: active = GI50 up to about 1.1 µM and inactive = higher.

Worked examples, 4 molecules total:
CC1(C)OC(CCO)CN1C(=O)OCc1ccccc1 (centres undefined)    > 100 µM (inactive)
C1COCCN1.S=C(S)N1CCOCC1    30 µM (inactive)
Nc1ccc(C(=O)O)c2[nH]c3ccccc3c(=O)c12    > 100 µM (inactive)
CCCCCC(CN1CCOCC1)C(=O)/C=C/c1ccccc1 (centres undefined)    2.19 µM (inactive)

Look at each molecule and report its GI50.
1. O=C(O)C1C(Br)(c2ccccc2)C1(Br)c1ccccc1 (centres undefined)
2. CCN(CC)CCCOc1cc2c(cc1OC)C(=O)N1CCC[C@H]1C=N2
3. O=C(NNc1ccccc1)c1ccc(Cl)c(Cl)c1
4. Oc1ccc(-c2csc(N/N=C3\NC/C(=C/c4ccc5c(c4)OCO5)S3)n2)cc1O
5. CC(=O)OC(C)(C)C[N+](=O)[O-]
6. NC(=O)CCC(Nc1c2ccccc2nc2ccccc12)C(=O)O (centres undefined)

[out]
1: 42.7 µM (inactive); 2: 24.6 µM (inactive); 3: > 78.9 µM (inactive); 4: 38.5 µM (inactive); 5: > 100 µM (inactive); 6: 41.1 µM (inactive)

Would you be so kind as to report GI50 for each listed record?
1. CCC/C(Cl)=N/OC(=O)Nc1cccc(F)c1
2. O=C1CCC(=O)c2ccccc2N1
3. O=C(NCCCCCCCCNC(=O)c1cnc2ccccc2n1)c1cnc2ccccc2n1
4. COC(=O)c1ccc(S)c(S(=O)(=O)Nc2nc(N)n[nH]2)c1

[out]
1: 1.6 µM (inactive); 2: > 100 µM (inactive); 3: > 100 µM (inactive); 4: > 100 µM (inactive)

###

# Test system: SF-539
# protocol.summary: NCI tumour cell line growth inhibition, 48 h
Activity calls are given as the source filed them. No stated cut-off is given here; in the data, active = GI50 up to about 1.1 µM and inactive = higher.
observed.property: GI50

Use the examples below as a reference point.
COC(=O)c1c(O)ccc2[nH]c3c(O)c4ccccc4cc3c12    21.4 µM (inactive)
CC1C2CC(CC2N)C1(C)C (centres undefined)    > 100 µM (inactive)

Items follow; give GI50 for each.
1. COc1ccc2c(c1)CCCc1c-2nc2ccccc2c1N
2. NC(=O)CC(/N=C1\C(=O)OC(C(O)CO)\C1=N/C(CC(N)=O)C(=O)O)C(=O)O (centres undefined)
3. O=C(O)c1nn(-c2ccccc2)nc1-c1nn(-c2ccccc2)nc1C(=O)O
4. CCC(=O)ONC(=O)Cn1ccc([N+](=O)[O-])n1
5. CC1CCC2(CC1)NC1=C(CC(C)CC1)C1=C2CC(C)CC1 (centres undefined)
6. CN(C)CCCCN1c2ccccc2Sc2ccc(N=[N+]=[N-])cc21
7. CC1C/C(=C\c2ccc(O)c(O)c2)C(=O)/C(=C/c2ccc(O)c(O)c2)C1 (centres undefined)

[out]
12.4 µM (inactive)
> 100 µM (inactive)
> 100 µM (inactive)
> 100 µM (inactive)
22.1 µM (inactive)
5.05 µM (inactive)
3.25 µM (inactive)

Batch request: GI50 per item, same order as input.
1. O=S(=O)(OI(O)CC(F)(F)F)C(F)(F)F
2. Cn1c(=O)c2c(nc(N/N=C3/SCC(=O)N3Cc3ccccc3)n2C)n(C)c1=O
3. CCCC(N)C(=O)c1ccccc1 (centres undefined)
4. CCCc1c(C(=O)OCC)[nH]c(-c2ccc(-c3[nH]c(C(=O)OCC)c(CCC)c3C(=O)OCC)o2)c1C(=O)OCC
5. C=CC[C@H]1C[C@@]2(C)OC[C@H](C(C)C)N2C1=O

[out]
["> 100 µM (inactive)", "25.6 µM (inactive)", "> 100 µM (inactive)", "> 100 µM (inactive)", "> 100 µM (inactive)"]

###

# System: SW-620
# protocol.summary: NCI tumour cell line growth inhibition, 48 h
Activity calls are given as the source filed them. Cut-off read from the data, not from the text of the source: active = GI50 up to about 1.1 µM and inactive = higher.
Hi there, use one of these labels in your reply, thanks! active, inactive

COC(=O)c1c[nH]c2c1-c1cc(C(=O)OCc3ccccc3)n(S(=O)(=O)c3ccc(C)cc3)c1C(=O)C2=O    active
COC(=O)C(Cc1nc2ccccc2nc1C)/C(=N\NC(N)=O)C(=O)Nc1cccc([N+](=O)[O-])c1 (configuration not stated)    inactive
COC1/C=C/C(C)C(C(C)C(OC)C(C)CCC(=O)C(C)C(C/C=C/N(C)C=O)OC)OC(=O)C=CC2OC2(C)CC(OC)C(OC)C2=CC(=O)O[C@@H](C(C)C(OC)CC(OC)/C=C/C(C)C(O)C1)[C@H]2O (some centres not stated)    active
COC(=O)C1=C(C(=O)OC)C(Cc2ccccc2)(OO)OC1=O (configuration not stated)    inactive
COc1cc(C)c2c(=O)c3ccccc3n(C)c2c1    inactive

[in] Hey, what did the test say about CC1(C)CC23C4COC(=O)C2CCC1C3CC4=O (configuration not stated) ?
[out] inactive
